- Target System: Ba/F3 EGFR-D770-N771ins_SVD (Homo sapiens, UniProt P00533, DUP768-770, cells depend on it)
- Sequence (P00533 with tags, fused parts or gaps DUP768-770): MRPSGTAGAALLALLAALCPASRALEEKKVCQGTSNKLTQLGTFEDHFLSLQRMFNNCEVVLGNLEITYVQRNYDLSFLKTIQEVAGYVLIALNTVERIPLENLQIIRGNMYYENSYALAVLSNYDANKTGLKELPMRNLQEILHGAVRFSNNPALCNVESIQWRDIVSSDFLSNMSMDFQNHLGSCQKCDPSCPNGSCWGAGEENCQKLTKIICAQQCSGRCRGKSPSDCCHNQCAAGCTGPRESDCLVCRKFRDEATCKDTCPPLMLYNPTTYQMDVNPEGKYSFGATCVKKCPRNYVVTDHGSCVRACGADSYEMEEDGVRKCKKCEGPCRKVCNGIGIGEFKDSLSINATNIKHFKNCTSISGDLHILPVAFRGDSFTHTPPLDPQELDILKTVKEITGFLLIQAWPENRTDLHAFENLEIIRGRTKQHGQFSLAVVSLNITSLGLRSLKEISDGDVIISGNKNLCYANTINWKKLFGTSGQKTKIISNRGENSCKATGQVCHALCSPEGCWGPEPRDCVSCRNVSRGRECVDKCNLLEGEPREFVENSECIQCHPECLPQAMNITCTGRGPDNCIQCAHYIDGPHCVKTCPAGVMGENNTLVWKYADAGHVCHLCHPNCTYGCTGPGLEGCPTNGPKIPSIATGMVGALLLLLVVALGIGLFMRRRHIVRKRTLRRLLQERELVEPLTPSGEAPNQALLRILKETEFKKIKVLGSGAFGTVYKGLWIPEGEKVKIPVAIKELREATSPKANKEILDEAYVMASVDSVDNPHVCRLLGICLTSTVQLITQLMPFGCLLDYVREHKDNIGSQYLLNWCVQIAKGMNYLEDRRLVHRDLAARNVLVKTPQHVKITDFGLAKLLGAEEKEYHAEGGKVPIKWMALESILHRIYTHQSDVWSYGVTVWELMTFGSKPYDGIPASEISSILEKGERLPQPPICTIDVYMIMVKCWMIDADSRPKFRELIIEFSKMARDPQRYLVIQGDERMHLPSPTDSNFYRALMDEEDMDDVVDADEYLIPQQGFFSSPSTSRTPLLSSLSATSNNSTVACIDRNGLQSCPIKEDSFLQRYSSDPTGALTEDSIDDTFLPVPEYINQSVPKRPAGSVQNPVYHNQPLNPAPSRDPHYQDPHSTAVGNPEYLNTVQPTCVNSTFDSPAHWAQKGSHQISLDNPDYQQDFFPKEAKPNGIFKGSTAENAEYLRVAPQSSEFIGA
- Protocol Notes: Proliferation experiment of Ba/F3 cell line, EGFR-D770-N771ins_SVD (CellTiter-Glo)
- Type: cell-based
- Measurement Context: cultured for 72 hrs with compound, CTG analysis, read-out: Ba/F3 EGFR-D770-N771ins_SVD IC50
Simple rule here: GI50 less than 30 nM is True, otherwise False.

| Compound String | Group |
| --- | --- |
| C=CC(=O)Nc1cc2c(Nc3ccc(F)c(-c4ccc(F)cc4)c3)ncnc2cc1OCCCN1CCN(C)CC1 | False |
| C=CC(=O)Nc1cc2c(Nc3cccc(-c4ccc(F)cc4)c3)ncnc2cc1OCCCN1CCOCC1 | False |
| C=CC(=O)Nc1cc2c(Nc3cccc(-c4ccc(F)cc4F)c3)ncnc2cc1O[C@@H]1CCN(C)C1 | False |
| C=C(F)C(=O)Nc1cc2c(Nc3ccnc(-c4ccccc4F)c3)ncnc2cc1OC1CC1 | True |
| C=CC(=O)Nc1cc2c(Nc3ccnc(-c4ccccc4F)c3)ncnc2cc1O[C@@H]1CCN(CCO)C1 | True |
| C=CC(=O)Nc1cc2c(Nc3cccc(-c4ncc(F)cc4F)c3)ncnc2cc1OCCCN1CCOCC1 | True |
| C=CC(=O)Nc1cc2c(Nc3ccc(F)c(-c4ccccc4)c3)ncnc2cc1OCCCN1CCN(C)CC1 | True |

###

- Target System: Ba/F3 EGFR-V769_D770insASV (Homo sapiens, UniProt P00533, DUP767-769, cells depend on it)
- Sequence (P00533 with tags, fused parts or gaps DUP767-769): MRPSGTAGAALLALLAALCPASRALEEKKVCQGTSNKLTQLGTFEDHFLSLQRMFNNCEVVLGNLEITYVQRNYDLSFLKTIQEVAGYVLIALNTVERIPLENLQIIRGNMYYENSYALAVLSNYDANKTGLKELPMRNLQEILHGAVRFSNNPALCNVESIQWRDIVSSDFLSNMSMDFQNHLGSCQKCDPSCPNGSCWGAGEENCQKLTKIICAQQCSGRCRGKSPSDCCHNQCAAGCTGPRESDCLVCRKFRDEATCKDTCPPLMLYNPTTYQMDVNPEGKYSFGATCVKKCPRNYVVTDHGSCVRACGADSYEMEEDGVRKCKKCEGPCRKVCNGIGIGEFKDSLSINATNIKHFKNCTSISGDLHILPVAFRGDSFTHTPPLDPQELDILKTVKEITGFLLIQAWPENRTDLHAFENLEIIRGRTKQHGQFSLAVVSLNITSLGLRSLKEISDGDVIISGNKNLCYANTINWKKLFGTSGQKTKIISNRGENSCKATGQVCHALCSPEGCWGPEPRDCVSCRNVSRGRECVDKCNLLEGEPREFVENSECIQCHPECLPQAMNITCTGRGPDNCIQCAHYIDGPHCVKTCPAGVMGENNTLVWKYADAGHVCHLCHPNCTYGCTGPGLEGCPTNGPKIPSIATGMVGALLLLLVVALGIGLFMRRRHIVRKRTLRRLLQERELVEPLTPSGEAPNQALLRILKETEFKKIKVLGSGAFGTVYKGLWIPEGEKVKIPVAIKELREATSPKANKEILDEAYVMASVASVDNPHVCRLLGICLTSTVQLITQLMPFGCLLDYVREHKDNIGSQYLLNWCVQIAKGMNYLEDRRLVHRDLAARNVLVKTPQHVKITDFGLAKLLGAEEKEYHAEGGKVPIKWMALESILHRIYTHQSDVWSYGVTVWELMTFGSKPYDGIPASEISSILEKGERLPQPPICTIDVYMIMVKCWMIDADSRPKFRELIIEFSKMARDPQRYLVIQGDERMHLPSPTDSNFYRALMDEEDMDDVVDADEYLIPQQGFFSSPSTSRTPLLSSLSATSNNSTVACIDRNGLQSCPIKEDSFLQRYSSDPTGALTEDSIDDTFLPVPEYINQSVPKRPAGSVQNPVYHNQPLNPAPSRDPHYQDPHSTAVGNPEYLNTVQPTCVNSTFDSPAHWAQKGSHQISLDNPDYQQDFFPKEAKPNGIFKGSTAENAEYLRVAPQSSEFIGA
- Protocol Notes: Proliferation experiment of Ba/F3 cell line, EGFR-V769_D770insASV (CellTiter-Glo)
- Format: cell-based
- Measurement Context: cultured for 72 hrs with compound, CTG analysis, read-out: Ba/F3 EGFR-V769_D770insASV IC50
In this section, each of the compounds is paired with its reported GI50.

| Compound | Reading Unit | GI50 |
| --- | --- | --- |
| C=CC(=O)Nc1cc2c(Nc3cccc(-c4ccc(F)cc4F)c3)ncnc2cc1OCCN1CCOCC1 [Example 3] | µM | 0.117 |
| C=CC(=O)Nc1cc2c(Nc3ccc(F)c(-c4ccccc4)c3)ncnc2cc1OCCCN1CCOCC1 [Example 47] | µM | 0.0414 |
| C=CC(=O)Nc1cc2c(Nc3ccc(F)c(-c4ccccn4)c3)ncnc2cc1OCCCN1CCOCC1 [Example 49] | µM | 0.0591 |
| C=C(F)C(=O)Nc1cc2c(Nc3ccnc(-c4ccccc4F)c3)ncnc2cc1N1CCOCC1 [Example 95] | µM | 0.0083 |
| C=CC(=O)Nc1cc2c(Nc3cccc(-c4ncc(F)cc4F)c3)ncnc2cc1OCCCN1CCOCC1 [Example 17] | µM | 0.0909 |

###

- Target System: Ba/F3 EGFR-V769_D770insASV (Homo sapiens, UniProt P00533, DUP767-769, cells depend on it)
- Protocol Notes: Proliferation experiment of Ba/F3 cell line, EGFR-V769_D770insASV (CellTiter-Glo)
- Format: cell-based
- Measurement Context: cultured for 72 hrs with compound, CTG analysis, read-out: Ba/F3 EGFR-V769_D770insASV IC50
Recorded Endpoint: GI50

| Compound String | Value |
| --- | --- |
| C=C(F)C(=O)Nc1cc2c(Nc3ccnc(-c4ccccc4F)c3)ncnc2cc1N1CCC(N2CCN(C)CC2)CC1 | 6.1 nM |
| C=C(F)C(=O)Nc1cc2c(Nc3ccnc(-c4ccccc4F)c3)ncnc2cc1N1CCC(N2CCOCC2)CC1 | 17 nM |
| C=CC(=O)Nc1cc2c(Nc3cncc(-c4c(F)cccc4F)c3)ncnc2cc1OCCCN1CCN(C)CC1 | 23.6 nM |
| C=CC(=O)Nc1cc2c(Nc3ccnc(-c4ccccc4F)c3)ncnc2cc1O[C@@H]1CCN(C(C)C)C1 | 7.8 nM |
